Values compiled from paper PMC12640959.

tested_target: SARS-CoV-2 papain-like protease (PL^pro) (Severe acute respiratory syndrome coronavirus 2)
assay: SPR assay (Biacore T200), immobilized PL^pro
Assay type: binding
readout_type: Kd (µM)
Write down the numeric answer in µM and omit the unit.

Provide Kd value for the following compound: O=C(O[C@@H]1O[C@@H]2COC(=O)c3cc(O)c(O)c(O)c3-c3c(cc(O)c(O)c3O)C(=O)O[C@H]([C@H]1O)[C@@H]2O)c1cc(O)c(O)c(O)c1 [COR, corilagin]
6.24

###

tested_target: SARS-CoV-2 papain-like protease (PL^pro) (Severe acute respiratory syndrome coronavirus 2)
assay: SPR assay (Biacore T200), immobilized PL^pro
Assay type: binding
assay_context: SPR, CM5 chip, 25 °C, pH 7.4, 5% DMSO; read-out: equilibrium dissociation constant (KD), PL^pro
readout_type: pKd
The scale used: pKd is minus the common logarithm of the concentration in molar units.

Report pKd for C[C@@H]1O[C@@H](O[C@H]2[C@H](Oc3cc(O)c4c(=O)cc(-c5ccc(O)cc5)oc4c3)O[C@H](CO)[C@@H](O)[C@@H]2O)[C@H](O)[C@H](O)[C@H]1O [RHO, rhoifolin]
5.11
